The reported numbers originate from the supplement of paper PMC13380429.

- System: Vero E6 infected with SARS-CoV-2
- ASSAY_INFO: inhibition of SARS-CoV-2 cytopathic effect; higher = more antiviral protection, active = above 15
- EXPERIMENTAL_CONDITIONS: 10000 nM; 48 h
TEST_READOUT: inhibition of SARS-CoV-2 cytopathic effect (%)

COMPOUND	QUANTITATIVE_RESULT
O=C1CC[C@@H](C(=O)N2CSC[C@H]2C(=O)O)N1 [pidotimod]	-0.3
Cc1c2oc3c(C)ccc(C(=O)N[C@@H]4C(=O)N[C@@H](C(C)C)C(=O)N5CCC[C@H]5C(=O)N(C)CC(=O)N(C)[C@@H](C(C)C)C(=O)O[C@@H]4C)c3nc-2c(C(=O)N[C@@H]2C(=O)N[C@@H](C(C)C)C(=O)N3CCC[C@H]3C(=O)N(C)CC(=O)N(C)[C@@H](C(C)C)C(=O)O[C@@H]2C)c(N)c1=O [actinomycin-d]	-14.8
O=C(C=Cc1ccccc1)NC(NC(=S)Nc1ccc(Cl)cc1)C(Cl)(Cl)Cl (stereo unspecified)	-5.67
CC(C)[C@H](CO)Nc1nc(Nc2cccc(Cl)c2)c2ncn(C(C)C)c2n1 [purvalanol-A]	-2.25
NC(=O)C1=CN([C@@H]2O[C@H](COP(=O)(O)OP(=O)(O)OC[C@H]3O[C@@H](n4cnc5c(N)ncnc54)[C@H](O)[C@@H]3O)[C@@H](O)[C@H]2O)C=CC1 [coenzyme-I]	1.66
O=C(Nc1cccnn1)N1CCC(=Cc2cccc(Oc3ccc(C(F)(F)F)cn3)c2)CC1	-3.19
CCOC(=O)NNc1nncc2ccccc12 [todralazine]	-0.55
CC1C(=O)OC2C(O)C34C5CC(C(C)(C)C)C36C(OC(=O)C6O)OC4(C(=O)O5)C12O (stereo unspecified) [ginkgolide-B]	0.1
Cc1ccc(F)cc1C(=O)Nc1ccc(C(=O)N2Cc3cccn3Cc3ccccc32)c(Cl)c1 [lixivaptan]	-0.31
O=C(NC1CCN(CCCCC2(C(=O)NCC(F)(F)F)c3ccccc3-c3ccccc32)CC1)c1ccccc1-c1ccc(C(F)(F)F)cc1 [lomitapide]	20.9
NC(=O)c1nc(Nc2ccccc2)sc1NC(=O)C1CCCCC1	-4.1
CS(=O)(=O)c1ccc(C2=C(c3ccccc3)C(=O)OC2)cc1 [rofecoxib]	1.14
CN(C)C(=O)C(=O)c1cn(C)c2cc(Cl)c(C(=O)N3CCC(Cc4ccc(F)cc4)CC3)cc12	6.33
Cc1ccccc1-n1c(Cn2ncc3c(N)ncnc32)nc2cccc(C)c2c1=O	54.3
C=CC(=O)Nc1ccc2ncnc(Nc3cccc(Br)c3)c2c1	-13.2
COc1ccc2c(c1)c(CC(=O)O)c(C)n2C(=O)c1ccc(Cl)cc1 [indomethacin]	0.17
